Recorded values, source the supplement of paper PMC9170038.

Field: apparent KD of K4 kissing-loop reporter. Provide a value for each of the sequences that follow.
# System: K4 kissing-loop RNA reporter;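 also: bound reporter read as fluorescence of individual clusters on recovered sequencing chips by microscopy, with normalized cluster intensities fitted with a binding model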
# protocol_description: apparent KD of K4 kissing-loop reporter; higher = weaker reporter binding
# cond: Eterna round: R107; input ligand: theophylline 20 uM
Express it in nM; write the number only.

Q. Which apparent KD of K4 kissing-loop reporter is listed for GUAUCAGUGAUGUUGAUAGGCGAGCGGGAUACCAGCCAAGACUCAGGCCCUUGGCAGCCCACAUAUCCCACGUAGAUAGUAGCUC [Same State - Theophylline A (Freestyle 16)] ?
A. 139

Q. Which apparent KD of K4 kissing-loop reporter is listed for GUGUAGAAGUGAGGAUAUCGAUUUAAGAAUAAGCAGUGAUGUUGCAAGCAGGAGGAAUAAGAUUAACGAGAAGGCGUGGAUAUAG [FMN B Exclusion; Euphoria Solution] ?
A. 141

Q. Which apparent KD of K4 kissing-loop reporter is listed for UGAUACCAGACGGCCGCCACUUCUGCAAGUCAAAGACUUGCUAAAGGAAUCGUCCAGUGAUGUUGGAGGACCGGGUCUGGUAUCU [FiskerMod 1 - Jieux - Exclusion - Tryptophan B] ?
A. 638

Q. Which apparent KD of K4 kissing-loop reporter is listed for UGACUGGACUGAAGGAGCGCUAAACUCCUAGUGAUGUUAGGGAACCGAGACAAAGUCUCGAGGCAGGUAGGUCGCAGUCUAGUCU [FiskerMod 2 - Jieux - Same State - Arginine B] ?
A. 359

Q. Which apparent KD of K4 kissing-loop reporter is listed for UCUGGAGCGUAUGAUACCAGCAGAGAGAGACAGGAAGUAUAGUGAUGUUAUAUGAGAGAAUGCCCUUGGCAGCGUGUGCAGUGGC [#26 K4 Theophylline B Same State] ?
A. 53.4

Q. Which apparent KD of K4 kissing-loop reporter is listed for GGGCUAUAGUGAUGUUAUUGUCUAAACGAUACCAGUUCACCCGUGAACCCUUGGCAGCGUGGUGUAACCUAUCCUCGUUGCACUG [theeternabot_sameState_KL_Theo_A_28] ?
A. 523

Q. Which apparent KD of K4 kissing-loop reporter is listed for GGGCAUCUGGCUGAUACCAGUGAUAAAGGGUAAGAGACAGGGAGUGAUGUUCCCUUUAGCCACCCUUGGCAGCAGUUUAAGUUUG [Exclusion Theophylline B GF 17] ?
A. 85.4

Q. Which apparent KD of K4 kissing-loop reporter is listed for CCCAAGGGCGAACCGGUAUGAUCGACGGAUACCAGAGGCGAAAGCCUCCCUUGGCAGCCGGCUGUAGUGAUGUUACACUGGUUCU ?
A. 186

Q. Which apparent KD of K4 kissing-loop reporter is listed for UUGGAAAUCAGAAGGAGCGUCUAAAAUGAAGGAACCAGUGAUGUUGGUUUUAUUUAAUGAAGACAGGUAGGUCGCUGAAUUUUUA [Same State Arginie B GF 18] ?
A. 116

Q. Which apparent KD of K4 kissing-loop reporter is listed for UGUCAUUGGUCGGCCGCCACUUCAUAAAGAGUGAUGUUCUAAAAGACGGAUCGAAAGAUCUGUCGAAGGACCGGGACCGAUGACU [TrypBS 18 #SwitchBubble #StaticStem] ?
A. 915

Q. Which apparent KD of K4 kissing-loop reporter is listed for CUUCGAUUAACAGAUACCAGUCACUUUGGAGCCACACACAAGUGAGUGAUGUUCACUUGUGACCCUUGGCAGCUGUUAGUCGAAG [Theo B Ex t1] ?
A. 87.6

Q. Which apparent KD of K4 kissing-loop reporter is listed for CCAAUCUGUUACGAUACCAGUCAAAGAUAUUUGAUCAAUACCCUCACCGAGUGAUGUUCGGACCCUUGGCAGCGUCUGGGAUAGG [ceevmullin] ?
A. 281

Q. Which apparent KD of K4 kissing-loop reporter is listed for AUGGUUGUCGUAGGAUAUGUAGGAUAUUCCUAUAGCAGUGAUGUUGCUAAUAUCUUGGAAAGAAGGACAGAAGGACGAUAACCAC [KL-SSFMN-B2 #analogue] ?
A. 108

Q. Which apparent KD of K4 kissing-loop reporter is listed for AUUUUUUUGUCAGGAUAUUAGUGUUGGUUUGGUUUGUUAGUGAUGUUGAUAUUUGUUUUAUGUAUUUAAGAAGGGAUUUAGCGGU [wxooemullin] ?
A. 458

Q. Which apparent KD of K4 kissing-loop reporter is listed for GUGACACGUGAUGAUACCAGUCCACGGAAGUUCCUUAGUGAUGUUAACCUUGCUUUUUCUGACCCUUGGCAGCAUUAGUUGAGAA [theeternabot_sameState_KL_Theo_B_42] ?
A. 304

Q. Which apparent KD of K4 kissing-loop reporter is listed for UGACAUUGCUCAGAUACCAGACAAGAGGAUCACCCUUGUGCCAAAACGUACUAAAUAAAUGUCCCUUGGCAGCUGAGCAAUGUCU [TheoBX 13] ?
A. 77.4

Q. Which apparent KD of K4 kissing-loop reporter is listed for UUGUUUGGUUGAGAGGUUGGGCGAAAUGAUACCAGUAUAUAAGAAUACCCUUGGCAGCAUAAGAAAGAUAUAGUGAUGUUGUAUA [SSTheophA.L] ?
A. 560

Q. Which apparent KD of K4 kissing-loop reporter is listed for UGUCGAGUGAUGUUCGAUUUGGUGCAUGCAGAGGAUAUAGGGUGGGCUAGAAGGCUGAAAAGUGCUUCGAGUGAUGUUCGAAGUU [Exclusion FMN A GF10] ?
A. 100

Q. Which apparent KD of K4 kissing-loop reporter is listed for UUUGGUUUCUCGGCCGCCACUCGUUGGUUAUGGGCCUCAGGGAUAUAGUGAUGUUAUGUAAAGAAGAGGACCGGGAGAAGGAAGG [ExTryptoB.Do] ?
A. 283

Q. Which apparent KD of K4 kissing-loop reporter is listed for AAGGUCACUACUACAGUGAUGUUGUAGGAGCAGGAUAUGCAGAAAUGCAGAAGGGCUCGCUCCAGGUGACCGAAUGAAACAUUCA [Omei KL FMN A SS A v3] ?
A. 475

Q. Which apparent KD of K4 kissing-loop reporter is listed for AUUCGCUCCACUGAUACCAGUCAUCGAGCAAGAUGCUAAGCCAGUGAUGUUGGCAUGAAUGACCCUUGGCAGCAGUACACUAAGG [Theo B SS t7] ?
A. 113

Q. Which apparent KD of K4 kissing-loop reporter is listed for AAAAUAAGCCAGUGAUGUUGGUAGCCAGAUACCAGCGACGAAAGUCGCCCUUGGCAGCUGUGGACGUACAAAAUAAGUACGUCCU ?
A. 711

Q. Which apparent KD of K4 kissing-loop reporter is listed for GACGGGCAGUGAUGUUGCCGGUCUCUUGGACGAGGACCGGUACGGCCGCCACUCGAUCUGAUGCGAGAAUUGUAUCUUUUAAUAA [Tegesosoat] ?
A. 346
